# Assayed Target: SUV39H2 (Homo sapiens (Human), UniProt Q9H5I1)
# Sequence (Q9H5I1 whole entry): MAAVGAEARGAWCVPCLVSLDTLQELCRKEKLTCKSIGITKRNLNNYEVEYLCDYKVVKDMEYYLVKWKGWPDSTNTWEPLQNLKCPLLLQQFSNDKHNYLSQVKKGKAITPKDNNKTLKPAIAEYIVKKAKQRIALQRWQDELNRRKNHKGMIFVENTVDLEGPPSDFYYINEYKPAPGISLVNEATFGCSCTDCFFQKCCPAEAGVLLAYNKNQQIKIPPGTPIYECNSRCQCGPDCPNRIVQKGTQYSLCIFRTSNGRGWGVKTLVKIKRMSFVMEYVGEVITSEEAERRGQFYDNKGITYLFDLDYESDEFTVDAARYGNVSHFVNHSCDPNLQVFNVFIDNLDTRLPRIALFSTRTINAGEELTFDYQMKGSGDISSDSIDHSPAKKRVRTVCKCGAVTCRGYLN
# Study Conditions: read-out: IC50 (μM) Suv 39H2 assay
Where a name gives a salt, the structure may show the parent alone.
Reported Endpoint: IC50 (µM)
Answers are plain numbers, in µM.

Consider the reported IC50 for these molecules:
COc1cc(OC(C)C)c(-c2cn3ccc(N4CC[C@H](N)C4)cc3n2)cc1Br [Example 59, hydrochloride] | 0.0112
COc1cc(C)c(Cl)cc1-c1cn2ccc(N3CCNCC3)cc2n1 [Example 228, hydrochloride] | 0.033
COc1cc(OC)c(-c2cn3ccc(N4CCN(CCN)CC4)cc3n2)cc1Cl [Example 29, trihydrochloride] | 0.012
COc1cc(OC)c(-c2cn3ccc(N)nc3n2)cc1Br [Example 2, hydrochloride] | 0.0169
COc1cc(OC)c(-c2cn3ccc(N4CCC(CN)CC4)nc3n2)cc1Cl [Example 31, hydrochloride] | 0.0489

Give one value of IC50 per listed molecule.
1. CNC1CCN(c2ccn3cc(-c4cc(Cl)c(OC)cc4OC)nc3c2)CC1 [Example 24, hydrochloride]
2. COc1cc(OC)c(-c2cn3ccc(N4CCN(CCO)CC4)cc3n2)cc1Cl [Example 43, dihydrochloride]
3. COc1cc(OC)c(-c2cn3ccc(N4CCC(N)C4)nc3n2)cc1Cl (centres unmarked) [Example 34, hydrochloride]

Response line:
[0.00939, 0.00854, 0.0273]
